Quick reference: inhibition of the listed items.
molecular target: Mitogen-activated protein kinase 9 (Homo sapiens) (UniProt P45984); settings: at 0.1 µM;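 note: values are mean inhibition of JNK2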
Sequence (P45984 whole entry, looked up): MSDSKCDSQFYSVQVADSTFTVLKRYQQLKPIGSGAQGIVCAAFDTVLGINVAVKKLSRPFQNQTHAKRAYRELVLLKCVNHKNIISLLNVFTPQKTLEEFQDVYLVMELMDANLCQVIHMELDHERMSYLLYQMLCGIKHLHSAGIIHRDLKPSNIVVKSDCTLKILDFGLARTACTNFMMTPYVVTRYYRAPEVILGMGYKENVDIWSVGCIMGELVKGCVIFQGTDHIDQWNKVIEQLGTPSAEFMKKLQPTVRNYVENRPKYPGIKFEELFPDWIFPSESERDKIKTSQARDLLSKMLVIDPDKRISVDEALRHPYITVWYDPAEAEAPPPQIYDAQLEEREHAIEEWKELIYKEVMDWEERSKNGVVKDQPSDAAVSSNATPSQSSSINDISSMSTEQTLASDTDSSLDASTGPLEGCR
The reply should contain only the number, in %.

FC(F)(F)c1cccc(-c2nn3ncccc3c2-c2ccnc(Nc3ccc4c(c3)OCCO4)n2)c1 : 4.15
COc1ccc2c(-c3ccnc(Nc4cccc(OC(F)(F)F)c4)n3)cnn2n1 : 1.35

INPUT: Entry N#Cc1c(NC(=O)CN2CCOCC2)sc2c1CCCC2 has what inhibition?
OUTPUT: 4.4

INPUT: Query Fc1ccc(-c2nn3ncccc3c2-c2ccnc(Nc3ccc4c(c3)OCCO4)n2)cc1 next
OUTPUT: 58.4

INPUT: Query COC(=O)Nc1nc2ccc(Oc3ccc(NC(=O)Nc4cccc(Cl)c4)cc3)cc2[nH]1 next
OUTPUT: 1.98

====

target: Angiopoietin-1 receptor (Homo sapiens); details: at 0.1 µM
Description: GSK_PKIS: TIE2 mean inhibition at 0.1 uM [Nanosyn]
measurementType: inhibition (%)
The reply should contain only the number, in %.

Some solved entries appear below for comparison.
CCN(CC)S(=O)(=O)c1ccc(OC)c(Nc2ncc(-c3ccccc3)o2)c1 : 4.38
NS(=O)(=O)c1ccc(Nc2ncc(-c3ccccc3)o2)cc1 : 2.1

INPUT: Entry [O-][S+]1CCN(Cc2ccc(-c3ccc4ncnc(Nc5ccc(OCc6cccc(F)c6)c(Cl)c5)c4c3)o2)CC1 has what inhibition?
OUTPUT: 3.66

INPUT: Query Cc1cccc2c1NC(=O)/C2=N\Nc1ccc(S(N)(=O)=O)cc1 next
OUTPUT: 1.65

INPUT: Query Fc1cccc(COc2ccc(Nc3ncnc4sc(-c5ccco5)cc34)cc2Cl)c1 next
OUTPUT: 4.1

INPUT: Query Nc1ncc(-c2cccc(S(N)(=O)=O)c2)c2scc(-c3ccc(F)c(Cl)c3)c12 next
OUTPUT: 2.99

INPUT: Query CCn1c(-c2nonc2N)nc2c(C#CC(C)(C)O)nc(OC[C@H](N)c3ccccc3)cc21 next
OUTPUT: 5.91

====

Quick reference: inhibition of the listed items.
biological target: Serine/threonine-protein kinase SIK2 (Homo sapiens) (UniProt Q9H0K1); conditions: at 1 µM;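 note: mean inhibition of SNF1LK2 (QIK) kinase activity, from the GSK PKIS screening panel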
Sequence (Q9H0K1 whole entry, looked up): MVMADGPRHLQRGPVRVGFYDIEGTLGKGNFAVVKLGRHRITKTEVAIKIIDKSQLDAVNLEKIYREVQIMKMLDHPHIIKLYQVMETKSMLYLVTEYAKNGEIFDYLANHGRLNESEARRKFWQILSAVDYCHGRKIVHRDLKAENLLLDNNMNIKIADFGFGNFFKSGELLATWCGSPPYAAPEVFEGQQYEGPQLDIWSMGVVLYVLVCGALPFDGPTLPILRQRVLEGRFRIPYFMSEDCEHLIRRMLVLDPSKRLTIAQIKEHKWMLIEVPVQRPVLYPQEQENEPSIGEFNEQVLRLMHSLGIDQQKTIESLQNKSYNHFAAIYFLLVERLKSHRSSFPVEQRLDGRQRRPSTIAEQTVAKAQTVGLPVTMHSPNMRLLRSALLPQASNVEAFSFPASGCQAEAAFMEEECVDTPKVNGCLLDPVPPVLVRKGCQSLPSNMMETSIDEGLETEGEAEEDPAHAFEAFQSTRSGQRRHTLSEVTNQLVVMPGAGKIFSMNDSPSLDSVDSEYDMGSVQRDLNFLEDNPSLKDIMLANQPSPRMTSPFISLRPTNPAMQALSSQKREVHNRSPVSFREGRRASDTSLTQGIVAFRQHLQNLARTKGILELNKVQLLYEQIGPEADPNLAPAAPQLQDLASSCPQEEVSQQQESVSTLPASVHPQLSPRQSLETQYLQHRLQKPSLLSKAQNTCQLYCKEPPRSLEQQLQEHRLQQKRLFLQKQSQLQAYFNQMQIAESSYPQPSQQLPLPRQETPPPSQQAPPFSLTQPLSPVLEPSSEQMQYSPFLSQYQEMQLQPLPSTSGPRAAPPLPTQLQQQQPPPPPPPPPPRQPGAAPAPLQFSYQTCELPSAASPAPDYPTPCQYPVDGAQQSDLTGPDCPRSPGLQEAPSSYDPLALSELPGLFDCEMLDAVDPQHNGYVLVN
The reply should contain only the number, in %.

Some solved entries appear below for comparison.
CS(=O)(=O)CCNCc1coc(-c2ccc3ncnc(Nc4ccc(OCc5ccccc5)cc4)c3c2)c1 : 5.7
Nc1nc(-c2ccc(F)cc2)c(-c2ccc3ncccc3n2)s1 : 11.6
COc1cc(N2CCN(C(C)C)CC2)ccc1Nc1nc(Nc2ccc(F)cc2C(N)=O)c2cc[nH]c2n1 : 8.56
c1cc(-c2cnn3nc(N4CCOCC4)ccc23)nc(NC2CC2)n1 : 7.7
Fc1ccc(-c2nn3ncccc3c2-c2ccnc(Nc3ccc4c(c3)OCCO4)n2)cc1 : 44.6
CN1CCC(n2cnc(-c3ccc(F)cc3)c2-c2ccnc(Nc3ccccc3)n2)CC1 : 22.9

INPUT: Entry Cc1cccc2c1NC(=O)/C2=N\Nc1ccc(S(N)(=O)=O)cc1 has what inhibition?
OUTPUT: 2.38

INPUT: Query CN1CCC(n2cnc(-c3ccc(F)cc3)c2-c2ccnc(N)n2)CC1 next
OUTPUT: 21.9

INPUT: Query NS(=O)(=O)c1ccc(Nc2ncc(-c3ccccc3)o2)cc1 next
OUTPUT: 18.9

INPUT: Query NC(=O)c1sc(-n2cnc3ccc(C(F)(F)F)cc32)cc1OCc1ccccc1Br next
OUTPUT: 9.85

INPUT: Query c1ccc(COc2ccc(Nc3ncnc4ccc(-c5ccco5)cc34)cc2)cc1 next
OUTPUT: 1.35

INPUT: Query COc1ccc(CNC(=O)c2ccc(-c3cc(-c4nnc(C)o4)ccc3C)cc2)cc1 next
OUTPUT: 6.77
